Biological target: TNFα trimer (Homo sapiens, UniProt P01375)
Sequence (P01375 77-233 limits assumed): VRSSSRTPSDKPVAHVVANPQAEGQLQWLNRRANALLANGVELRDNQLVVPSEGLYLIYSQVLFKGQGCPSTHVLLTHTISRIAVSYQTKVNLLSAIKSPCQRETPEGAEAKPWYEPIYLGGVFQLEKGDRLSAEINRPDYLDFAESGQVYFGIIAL
Assay: TNFα FP Competitive Binding Assay
Settings: TNFα FP competitive binding assay; class symbols A/B/C; read-out: TNF IC50
Protocol: TNFα FP Competitive Binding Assay • 1. […] • 1. […] Prior to reading the assay, the plates are placed in a dark cabinet to equilibrate at rt for one hour. • 9. Background-subtracted fluorescence polarization (mP) is measured using a PerkinElmer Envision plate reader. • 10. […]
pIC50: −log10 of the molar value.
measuredMetric: pIC50

Known results for molecules:
molecule: FC(F)(F)c1ccc(-c2ccc3nc4n(c3c2)C(c2ccccc2)COC4)cn1 (centres unmarked) [T.33]
pIC50: 5.00 to 6.00
//
molecule: COC(=O)C1CCC(Oc2cc(-c3ccc4nc5n(c4n3)[C@@H](c3ccccc3)CC5)ccn2)C1 (some centres unmarked) [AS.5]
pIC50: 5.00 to 6.00
//
molecule: Fc1cccc([C@H]2COCc3nc4ccc(-c5cnc(N6CCOCC6)nc5)cc4n32)c1 [Y.7]
pIC50: > 6.00
//
molecule: COc1ccccc1[C@H]1CCc2nc3ccc(-c4cnc(N5CCN6C(=O)NC[C@H]6C5)nc4)nc3n21 [AO.2]
pIC50: > 6.00

QUERY: Check the records and state pIC50 for CCOc1ncc(-c2ccc3nc4n(c3n2)C2(CCOc3ccccc32)COC4)cn1 (centres unmarked) [BA.2]
RESULT: > 6.00

QUERY: Check the records and state pIC50 for O=C1NCC2CN(c3ncc(-c4ccc5nc6n(c5c4)C(c4cccc(F)c4)COC6)cn3)CCN12 (centres unmarked) [V.1]
RESULT: > 6.00

QUERY: Check the records and state pIC50 for O=C1NCC2CN(c3ncc(-c4ccc5nc6n(c5c4)C4(CCc5ccccc54)COC6)cn3)CCN12 (centres unmarked) [V.3]
RESULT: > 6.00

QUERY: Check the records and state pIC50 for c1ccc([C@H]2CCc3nc4ccc(-c5ccnc(OC6CCC67CCNC7)c5)nc4n32)cc1 (some centres unmarked) [AT.3]
RESULT: 5.00 to 6.00

* * *

// values below are reported IC50
Molecular target: TNFα trimer (Homo sapiens)
Assay: TNFα FP Competitive Binding Assay
Conditions: TNFα FP competitive binding assay; class symbols A/B/C; read-out: TNF IC50

Known results for compounds:
compound: CC(C)(O)c1ncc(-c2ccc3nc4n(c3c2)[C@H](c2ccccc2)CCC4)cn1 [Y.3]
recordedMeasurement: 1 to 10 µM

compound: Fc1ccc(F)c(C2COCc3nc4ccc(-c5cnc(N6CCOCC6)nc5)cc4n32)c1 (stereo not drawn) [U.1]
recordedMeasurement: < 1 µM

compound: OC1(c2ncc(-c3ccc4nc5n(c4c3)[C@@H](c3ccccc3)CC5)cn2)COC1 [AA.3]
recordedMeasurement: < 1 µM

compound: Cn1cnc2cc(-c3ccc4nc5n(c4c3)C(c3ccccc3)COC5)cnc21 (stereo not drawn) [T.32]
recordedMeasurement: 10 to 100 µM

compound: Cc1ccc(-c2ccc3nc4n(c3c2)C(c2ccccc2)COC4)cn1 (stereo not drawn) [T.18]
recordedMeasurement: 1 to 10 µM

compound: Cc1nccn1-c1cnc(-c2ccc3nc4n(c3c2)C(c2ccccc2)COC4)cn1 (stereo not drawn) [T.8]
recordedMeasurement: 1 to 10 µM

compound: CS(=O)(=O)CCn1ccc(-c2ccc3nc4n(c3n2)[C@@H](c2ccccc2)CC4)cc1=O [AK.2]
recordedMeasurement: 10 to 100 µM

compound: CC(C)(O)c1ncc(-c2ccc3nc4n(c3n2)[C@@H](c2ccccc2)COC4)cn1 [AB.2]
recordedMeasurement: < 1 µM

Next compound, IC50 to be filled in.
QUERY: Check the records and state IC50 for OC1(c2ncc(-c3ccc4nc5n(c4c3)[C@@H](c3ccccc3)CC5)cn2)CCOCC1 [AA.1]
RESULT: < 1 µM

* * *

Target: TNFα trimer (Homo sapiens)
Assay: TNFα FP Competitive Binding Assay
Settings: fluorescence polarization competition; 20 nM TNFα trimer, 1 nM OregonGreen488 probe; read-out: TNF IC50 (TNFα FP binding assay IC50)
pIC50: −log10 of the molar value.
measuredMetric: pIC50

Known results for compounds:
compound: O=C1NCC2CN(c3ncc(-c4ccc5nc6n(c5n4)C(c4ccccc4)CC6)cn3)CCN12 (centres unmarked)
pIC50: > 6.00
//
compound: c1ccc2c(c1)OCC21COCc2nc3ccc(-c4cnc(N5CCOCC5)nc4)nc3n21 (centres unmarked)
pIC50: > 6.00
//
compound: O=C1NC[C@H]2CN(c3ncc(-c4ccc5nc6n(c5n4)[C@@H](c4ccccc4)CC6)cn3)CCN12
pIC50: > 6.00

QUERY: Check the records and state pIC50 for `O[C@@H]1CN(c2ncc(-c3ccc4nc5n(c4c3)[C@@H](c3ccccc3)COC5)cn2)C[C@H]1O`
RESULT: 4.00 to 5.00

QUERY: Check the records and state pIC50 for Cc1ccc(C)c(C2CCc3nc4ccc(-c5cnc(N6CCN7C(=O)NCC7C6)nc5)nc4n32)c1 (centres unmarked)
RESULT: > 6.00

QUERY: Check the records and state pIC50 for `COc1ccccc1C1=CCCc2nc3ccc(-c4cnc(N5CCOCC5)nc4)cn3c21`
RESULT: 4.00 to 5.00

QUERY: Check the records and state pIC50 for COc1ccccc1C1(O)CCCc2nc3ccc(-c4cnc(N5CCOCC5)nc4)cn3c21 (centres unmarked)
RESULT: 5.00 to 6.00

QUERY: Check the records and state pIC50 for CS(=O)(=O)C1CCN(c2ncc(-c3ccc4nc5n(c4c3)[C@@H](c3ccccc3)COC5)cn2)C1 (some centres unmarked)
RESULT: 5.00 to 6.00

* * *

Molecular target: TNFα trimer (Homo sapiens, UniProt P01375)
Assay: TNFα FP Competitive Binding Assay
Settings: TNFα FP competitive binding assay; class symbols A/B/C; read-out: TNF IC50
measuredMetric: IC50

Known results for compounds:
compound: COc1ccccc1C1CCc2nc3ccc(-c4cnc(N5CCN6C(=O)NCC6C5)nc4)nc3n21 (centres unmarked)
IC50: < 1000 nM
//
compound: COc1ncc(-c2ccc3nc4n(c3n2)C2(COC4)COc3ccccc32)cn1 (centres unmarked)
IC50: 1000 to 10000 nM
//
compound: OCC1CCCN(c2ncc(-c3ccc4nc5n(c4n3)C3(CCc4ccccc43)COC5)cn2)C1 (centres unmarked)
IC50: < 1000 nM
//
compound: c1ccc(C2COCc3nc4ccc(-c5cnc6nccnc6c5)cc4n32)cc1 (centres unmarked)
IC50: 10000 to 100000 nM

Next compound, IC50 to be filled in.
QUERY: Please tell me the measured IC50 for CC1(c2ccccc2)CCc2nc3ccc(-c4cnc(N5CCN6C(=O)NCC6C5)nc4)nc3n21 (centres unmarked) ; system: TNFα trimer (Homo sapiens, UniProt P01375).
RESULT: < 1000 nM

* * *

Biological target: TNFα trimer (Homo sapiens)
Assay: TNFα FP Competitive Binding Assay
Conditions: Table BN; read-out: TNF IC50
measuredMetric: IC50

QUERY: Check the records and state IC50 for COC(=O)CC1CC=C(c2ccc3nc4n(c3n2)[C@@H](c2ccccc2)CC4)CC1 (stereo partly shown) [BN.1]
RESULT: 1 to 10 µM

* * *

Target: TNFα trimer (Homo sapiens, UniProt P01375)
Assay: TNFα FP Competitive Binding Assay
Conditions: fluorescence polarization competition; 20 nM TNFα trimer, 1 nM OregonGreen488 probe; read-out: TNF IC50 (TNFα FP binding assay IC50)
measuredMetric: IC50

Known results for compounds:
compound: CC1(C)C=C(c2ccc3nc4n(c3n2)C2(COC4)COc3ccccc32)CN1 (centres unmarked)
recordedMeasurement: 1000 to 10000 nM
--
compound: OC1CCCN(c2ncc(-c3ccc4nc5n(c4c3)[C@@H](c3ccccc3)COC5)cn2)CC1 (some centres unmarked)
recordedMeasurement: < 1000 nM
--
compound: CS(=O)(=O)[C@@H]1CCN(c2ncc(-c3ccc4nc5n(c4c3)[C@@H](c3ccccc3)COC5)cn2)C1
recordedMeasurement: 1000 to 10000 nM
--
compound: CSc1ccc(-c2ccc3nc4n(c3c2)C(c2ccccc2)CC4)cn1 (centres unmarked)
recordedMeasurement: 1000 to 10000 nM
--
compound: C[C@H]1CN(c2ncc(-c3ccc4nc5n(c4n3)[C@@]3(COC5)COc4ccccc43)cn2)CCN1C(=O)CO
recordedMeasurement: < 1000 nM

QUERY: Check the records and state IC50 for Cc1ccc(C)c(C2CCc3nc4ccc(-c5cnc(C(C)(C)O)nc5)cc4n32)c1 (centres unmarked)
RESULT: < 1000 nM

QUERY: Check the records and state IC50 for CN1CCN(c2ccc(-c3ccc4nc5n(c4c3)C(c3ccccc3)CC5)cn2)CC1 (centres unmarked)
RESULT: 1000 to 10000 nM

QUERY: Check the records and state IC50 for `OC1CC2(CCN(c3ncc(-c4ccc5nc6n(c5c4)[C@@H](c4ccccc4)CC6)cn3)CC2)C1`
RESULT: < 1000 nM
